Test system: recombinant NL4-3 viruses with polymorphisms at IN positions 124 and 125
experiment-notes: Multiple-round infection of MT4 cells with recombinant NL4-3 viruses polymorphic at IN positions 124 and 125
Format: cell-based, HIV-1
test-conditions: recombinant NL4-3, IN 124/125 TV
recorded-metric: Fold change in EC50 relative to parental NL4-3, TV
Please reply with the number alone, leaving off any unit.

Dear colleague, I am looking for the recorded Fold change in EC50 relative to parental NL4-3, TV of the following compound: Cc1cc(NS(=O)(=O)CC2CCCCC2)c(C)c(C(OC(C)(C)C)C(=O)O)c1-c1ccc2c(c1)CCCO2 (centres unmarked) [S-I-82, reference compound]
1

Fold change in EC50 relative to parental NL4-3, TV for Cc1nc2ccccc2c(-c2ccc3c4c(ccnc24)CCO3)c1[C@H](OC(C)(C)C)C(=O)O [BI-224436, reference compound] ?
1

Dear colleague, I am looking for the recorded Fold change in EC50 relative to parental NL4-3, TV of the following compound: `Cc1ccc(C2CC2)c(-c2ccc3c(c2)CCCO3)c1[C@H](OC(C)(C)C)C(=O)O`
1

What measured Fold change in EC50 relative to parental NL4-3, TV goes with `Cc1ccc(C2CC2)c(-c2ccc3c(c2C)CCCO3)c1[C@H](OC1CC1)C(=O)O` ?
1

Which value of Fold change in EC50 relative to parental NL4-3, TV has been reported for `Cc1ccc(C2CC2)c(-c2ccc3c(c2C)CCCO3)c1[C@H](OC(C)(C)C)C(=O)O` in the records?
1

What measured Fold change in EC50 relative to parental NL4-3, TV goes with `Cc1ccc(C2CC2)c(-c2cc(F)c3c(c2C)CCCO3)c1[C@H](OC1CC1)C(=O)O` ?
0.4

Value lookup for Fold change in EC50 relative to parental NL4-3, TV; key = `Cc1ccc(C2CC2)c(-c2ccc3c(c2)CCCO3)c1[C@H](OC1CC1)C(=O)O`
1

Fold change in EC50 relative to parental NL4-3, TV for C[C@@H]1CCO[C@H]2Cn3cc(C(=O)NCc4ccc(F)cc4F)c(=O)c(O)c3C(=O)N12 [DTG, dolutegravir, reference compound] ?
2

----------
Test system: NL4-3 HIV-1 strain
experiment-notes: Multiple-round infection assay in MT4 cells, NL4-3
Type: cell-based
test-conditions: MT4 cells
Consider the following molecules; for each one, report its Selectivity index CC50/EC50 NL4-3.

Give its Selectivity index CC50/EC50 NL4-3 value. Item: `Cc1ccc(C2CC2)c(-c2cc(F)c3c(c2C)CCCO3)c1[C@H](OC1CC1)C(=O)O`
3,900

Which Selectivity index CC50/EC50 NL4-3 reading was recorded for the molecule Cc1cc(NS(=O)(=O)CC2CCCCC2)c(C)c(C(OC(C)(C)C)C(=O)O)c1-c1ccc2c(c1)CCCO2 (centres unmarked) [S-I-82, reference compound] ?
2,333

What does the record list as Selectivity index CC50/EC50 NL4-3 for `Cc1ccc(C2CC2)c(-c2ccc3c(c2)CCCO3)c1[C@H](OC(C)(C)C)C(=O)O` ?
7,931

For the molecule `Cc1ccc(C2CC2)c(-c2ccc3c(c2C)CCCO3)c1[C@H](OC1CC1)C(=O)O` , what Selectivity index CC50/EC50 NL4-3 is on record?
5,200

What value of measured Selectivity index CC50/EC50 NL4-3 is listed for `Cc1ccc(C2CC2)c(-c2ccc3c(c2)CCCO3)c1[C@H](OC1CC1)C(=O)O` ?
3,088

For Cc1nc2ccccc2c(-c2ccc3c4c(ccnc24)CCO3)c1[C@H](OC(C)(C)C)C(=O)O [BI-224436, reference compound] , what is its reported Selectivity index CC50/EC50 NL4-3?
>3,921

Please give the measured Selectivity index CC50/EC50 NL4-3 for this molecule: `Cc1ccc(C2CC2)c(-c2ccc3c(c2C)CCCO3)c1[C@H](OC(C)(C)C)C(=O)O`
14,838

Consider the molecule shown here: C[C@@H]1CCO[C@H]2Cn3cc(C(=O)NCc4ccc(F)cc4F)c(=O)c(O)c3C(=O)N12 [DTG, dolutegravir, reference compound] What is its recorded Selectivity index CC50/EC50 NL4-3?
18,888
